- Tested on: SK-MEL-5
- procedureText: NCI tumour cell line growth inhibition, 48 h
Activity calls are given as the source filed them. Cut-off read from the data, not from the text of the source: active = GI50 up to about 1.1 µM and inactive = higher.
Allowed answers: active, inactive

// param item: C=CC1(CBr)CCC(C(C)(C)Br)O1 (stereo unspecified) ; yields the recorded call
inactive

// param item: O=C(N/C(=C\c1ccccc1O)c1nc2ccccc2[nH]1)c1ccccc1 ; yields the recorded call
inactive

// param item: CCCCOc1ccc(S(=O)(=O)N/C(N)=N/c2ccc(Cl)cc2)cc1 ; yields the recorded call
inactive

// param item: Cc1nn(C(=O)c2ccc(Cl)cc2)c2c1C(c1ccccc1)SC(=N)N2 (stereo unspecified) ; yields the recorded call
inactive

// param item: CCOC(=O)c1ccc(NCC#CCN2CCOCC2)cc1 ; yields the recorded call
inactive

// param item: NNc1ncc2c(n1)-c1ccccc1OC2 ; yields the recorded call
inactive

// param item: O=C1NC(=O)C(F)(n2cc(F)c(=O)[nH]c2=O)C(O)N1 (stereo unspecified) ; yields the recorded call
inactive

// param item: CC(=O)c1c(P(=O)(OC(C)C)OC(C)C)nn(-c2ccc([N+](=O)[O-])cc2)c1C ; yields the recorded call
inactive

// param item: CCN(CCCl)c1cc(CN(C)C)cc(NC(=O)c2ccc(C(=O)Nc3ccccc3)cc2)c1 ; yields the recorded call
active

// param item: C[N+](C)(C)CC(=O)N/N=C/c1oc(-c2cccc([N+](=O)[O-])c2)c(-c2cccc([N+](=O)[O-])c2)c1[N+](=O)[O-] ; yields the recorded call
inactive

// param item: COc1cc(C2c3cc4c(cc3[C@@H](Nc3ccc(C(=O)O)cc3)C3COC(=O)[C@H]23)OCO4)cc(OC)c1O (stereo partly specified) ; yields the recorded call
inactive

// param item: c1ccc2c(c1)OCCc1cn[nH]c1-2 ; yields the recorded call
inactive

// param item: N#CC(C#N)C(c1ccccc1)c1ccccc1 ; yields the recorded call
inactive

// param item: CCOC(=O)Nc1nc2cc(Cn3cccc3)ccc2[nH]1 ; yields the recorded call
active

// param item: CC(=O)OC1CCn2nnc(COC(=O)NC(C)C)c21 (stereo unspecified) ; yields the recorded call
inactive

// param item: Cc1cc([N+](=O)[O-])c(C)c2c1[nH]c1ccc(/C(CCC3CCCC3)=N\N)cc12 ; yields the recorded call
inactive

// param item: CCCc1c(C(=O)OCC)[nH]c(C(=O)CCC(=O)c2[nH]c(C(=O)OCC)c(CCC)c2C(=O)OCC)c1C(=O)OCC ; yields the recorded call
inactive

// param item: C/C=C\C(CC(=O)NCCC1CN(C(=O)OCc2ccccc2)c2ccccc21)CC(=O)OC (stereo unspecified) ; yields the recorded call
inactive

// param item: Cc1ccc(/N=N/c2c(C)c(C#N)c(=S)n(C3OC(CO)C(O)C(O)C3O)c2C)cc1 (stereo unspecified) ; yields the recorded call
inactive

// param item: CC1CC[P+](c2ccccc2)(c2ccccc2)c2c1ccc1ccccc21 (stereo unspecified) ; yields the recorded call
inactive

// param item: NC1=NS(=O)(=O)Nc2[nH]c(-c3ccccc3)nc21 ; yields the recorded call
inactive
